- tested target: the molecule itself
- assay info: FRET or BRET; homo-FRET (steady-state fluorescence anisotropy of EGFP, time-domain, TCSPC) at the plasma membrane of living transfected Jurkat cells on PLL-coated slides, 37 °C; semi-quantitative, calibrated by monomeric LAT and dimeric CD8α
measurement name: steady-state anisotropy, median

The measured steady-state anisotropy, median associated with EGFP-Nkrp1a (receptor, mouse (C57BL/6), UniProt P27811 1-227, looked up, last residue H227; Vector pXJ41; also called Nkrp1a1; a1 isoform; source: Jurkat, transiently transfected, living cells; COS-7, transiently transfected, in lysate; not shown: EGFP (with spacer GSGGGS), N-terminal, kept) MDTARVYFGLKPPRTPGAWHESPPSLPPDACRCPRSHRLALKLSCAGLILLVVTLIGMSVLVRVLIQKPSIEKCYVLIQENLNKTTDCSAKLECPQDWLSHRDKCFQVSHVSNTWEEGLVDCDGKGATLMLIQDQEELRFLLDSIKEKYNSFWIGLRYTLPDMNWKWINGSTLNSDVLKITGDTENDSCAAISGDKVTFESCNSDNRWICQKELYHETLSNYVGYGH reads 0.271
